- method-notes: BSK_3C_VCAM1: BioMAP Diversity Plus: 3C Assay for Vascular cell adhesion molecule 1 (VCAM1) Biomarker Activity (AID 2282999)
- measurement-setup: BioMAP 3C HUVEC, VCAM1 ELISA, cytokine-stimulated; actives raise or lower the signal
Activity calls are given as the source filed them. Rule for the calls: active = hit-call score of the fitted dose curve at least 0.9, where 1 is the maximum; inactive = score below 0.9.
quantity-kind: AC50

* CCCCC(CC)CN1C(=O)C2C3C=CC(C3)C2C1=O (stereo not drawn) | inactive
* CSC(=O)c1cccc2nnsc12 | inactive
* COC(=O)c1ccc(CNS(C)(=O)=O)cc1S(=O)(=O)NC(=O)Nc1nc(OC)cc(OC)n1 | inactive
* COC(=O)c1ccccc1C(=O)O | inactive
* CCCCCCC(C)OC(=O)COc1nc(F)c(Cl)c(N)c1Cl (stereo not drawn) | 18.3 µM (active)
* CCN(CC)C(=O)c1cccc(C)c1 | inactive
* CCC(O)=C1C(=O)CC(C(=O)O)CC1=O (stereo not drawn) | inactive
* OB(O)O | inactive
* CC(C)(C)[C@@H](O)[C@@H](Cc1ccc(Cl)cc1)n1cncn1 | inactive
* O=C(O)c1ccccc1 | inactive
* CCOC(=O)C(C)Oc1ccc(Oc2cnc3cc(Cl)ccc3n2)cc1 (stereo not drawn) | inactive
* N[C@@H](Cc1cc(I)c(Oc2ccc(O)c(I)c2)c(I)c1)C(=O)O | inactive
* CC(C)CCCCCCc1ccc(O)cc1 | 7.98 µM (active)

----------
- Read-out: succinate dehydrogenase complex iron sulfur subunit B (SDHB), SDHB (gene 6390)
- method-notes: LTEA_HepaRG_SDHB: Life Technologies and Expression Analysis (LTEA) Assay for succinate dehydrogenase complex iron sulfur subunit B (SDHB) using HepaRG (AID 2283528)
- measurement-setup: mRNA level, 48 h; actives raise or lower the signal
- Description: LTEA_HepaRG is a cell based, multiplexed-readout assay that uses HepaRG, a human liver cell line, with measurements taken at 48 hours after chemical dosing on a 96-well plate.LTEA_HepaRG_SDHB is one of 102 assay component(s) measured in the LTEA HepaRG cell culture assay. It is a marker of Cell proliferation, survival, death.Data from the assay component LTEA_HepaRG_SDHB was analyzed into 1 endpoint. […]
Activity calls are given as the source filed them. How the source made its calls: active means hit-call score of the fitted dose curve at least 0.9, where 1 is the maximum; inactive means score below 0.9.
Outcomes: active, inactive

* CC(=O)S[C@@H]1CC2=CC(=O)CC[C@]2(C)[C@H]2CC[C@@]3(C)[C@@H](CC[C@@]34CCC(=O)O4)[C@H]12 | inactive
* CCCCC(CC)COC(=O)c1ccccc1C(=O)O (stereo not drawn) | inactive
* CC1(C)C(C=C(Cl)Cl)C1C(=O)OCc1cccc(Oc2ccccc2)c1 (stereo not drawn) | inactive
* CCOC(=O)c1ccc(O)cc1 | inactive
* C[C@]12C[C@H](O)[C@H]3[C@@H](CCC4=CC(=O)CC[C@@]43C)[C@@H]1CC[C@@H]2C(=O)CO | inactive
* C#CCOC(=O)[C@@H](C)Oc1ccc(Oc2ncc(Cl)cc2F)cc1 | inactive
* CCOC(=O)C(C)Oc1ccc(Oc2cnc3cc(Cl)ccc3n2)cc1 (stereo not drawn) | inactive
* CCN(Cc1c(F)cccc1Cl)c1c([N+](=O)[O-])cc(C(F)(F)F)cc1[N+](=O)[O-] | inactive
* CC(C)(C)[C@@H](O)[C@@H](Cc1ccc(Cl)cc1)n1cncn1 | inactive
* CCCCCOC(=O)COc1cc(N2C(=O)C3=C(CCCC3)C2=O)c(F)cc1Cl | inactive
* CCOC(=O)COc1cc(-n2ncc(C(F)(F)F)c(C)c2=O)c(F)cc1Cl | inactive
* CC(C)CCCCCCc1ccc(O)cc1 | inactive
* C[C@]12CC[C@@H]3c4ccc(O)cc4C[C@@H](CCCCCCCCCS(=O)CCCC(F)(F)C(F)(F)F)[C@H]3[C@@H]1CC[C@@H]2O (stereo partly drawn) | active
* Cc1nn(C)c(Oc2ccccc2)c1C=NOCc1ccc(C(=O)OC(C)(C)C)cc1 | inactive
* C=CCOC(Cn1ccnc1)c1ccc(Cl)cc1Cl (stereo not drawn) | inactive
* COC(=O)c1ccccc1C(=O)O | inactive
* CCOC(=O)C(C)Oc1ccc(Oc2nc3ccc(Cl)cc3o2)cc1 (stereo not drawn) | inactive
* CCN(CC)C(=O)c1cccc(C)c1 | inactive
* CCCCOCCOCCOCc1cc2c(cc1CCC)OCO2 | inactive
* c1ccc(Nc2ccccc2)cc1 | inactive
* CCCCOC(=O)[C@@H](C)Oc1ccc(Oc2ccc(C(F)(F)F)cn2)cc1 | inactive
* CCOC(=O)NCCOc1ccc(Oc2ccccc2)cc1 | inactive
* CCCN(CCC)C(=O)SCC | inactive
